system: PLK2; details: concentration: 1 μM, replicates: in singlicate; n = 1;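 also: KINOMEscan kinase panel screen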
ENDPOINT_NAME: %Inh (%)
Give the quantity in %, number only.

*Q* // returns reported %Inh for input `Nc1ncc(-c2ccc3nccc(-c4ccncc4)c3c2)cc1S(=O)(=O)N1CCCCC1`
*A* 30

*Q* Need %Inh of `O=C(Nc1c(F)cccc1F)c1cc(C(=O)c2ccccc2F)c[nH]1` , thanks.
*A* 0

*Q* Which %Inh reading was recorded for the molecule `Nc1ncc(-c2cn[nH]c2)c2scc(-c3ccc4c(c3)CCN4C(=O)Cc3ccccc3)c12` ?
*A* 17

*Q* Data request, read-out %Inh, for `CC(C)(C)c1ccc(C(=O)Nc2cn3cc(-n4ccnc4)ccc3n2)cc1`
*A* 24

*Q* Recorded %Inh of `N#CC1(c2cccc(C(=O)Nc3cccc(Oc4ccc5nc(NC(=O)C6CC6)sc5n4)c3)c2)CC1` , please.
*A* 5

*Q* Given the molecule `Cc1ccc(NC(=O)c2cccc(N3CCCCC3)c2)cc1-c1ccc(C(=O)NCC2CC2)cc1` , what is its reported %Inh?
*A* 0

*Q* Which %Inh value belongs to `CCn1cnc2c(NCc3ccccc3)ncnc21` ?
*A* 25

*Q* Name the reported %Inh value associated with the molecule `CCn1c(-c2nonc2N)nc2c(-c3ccccc3)ncc(OCCCN)c21.O=C(O)C(F)(F)F.O=C(O)C(F)(F)F`
*A* 0

*Q* Looking for the measured %Inh of `Cc1cc(-c2c(-c3ccc(F)cc3)ncn2CCCN2CCOCC2)nc(N)n1` , can you help?
*A* 11

*Q* Given `O=C(O)C(F)(F)F.O=c1[nH]ccc2nc(N[C@@H]3CCNC3)nc(Nc3cc(Cl)cc(Cl)c3)c12` , state its recorded %Inh.
*A* 26

*Q* Look at this molecule and give its reported %Inh. `COc1cccc(-c2nc(-c3ccccc3)[nH]c2-c2ccncc2)c1`
*A* 0

*Q* Item `CS(=O)(=O)c1cccc(CNc2nc(Nc3ccc4c(c3)CCC(=O)N4)ncc2C(F)(F)F)c1` has what recorded %Inh?
*A* 29

*Q* May I ask what %Inh has been recorded for `O=C1NC(=O)C(c2ccccc2Cl)=C1Nc1cccc(Cl)c1` ?
*A* 0

*Q* For `N#Cc1cnc2cc(-c3cnc(CNCCN4CCOCC4)s3)ccc2c1Nc1ccc(Oc2ccccc2)cc1` , what is its reported %Inh?
*A* 0

*Q* Quick one: %Inh of `Fc1cc(Cl)ccc1Nc1ccnc2cc(-c3ccc(CN4CCOCC4)o3)ccc12` ?
*A* 0

*Q* Given the entry `CN(c1ccc(NC(=O)Nc2cccc(Cl)c2)cc1)c1ccnc(N)n1.Cl` , report its measured %Inh.
*A* 14

*Q* May I ask what %Inh has been recorded for `CC(C)c1nc(-c2ccc(F)c(NS(=O)(=O)c3c(F)cccc3F)c2)c(-c2ccnc(Nc3ccc(N4CCOCC4)nc3)n2)s1` ?
*A* 0

*Q* Fill in the blank: the reported %Inh of `COC(=O)Nc1nc2cc(Oc3ccc(NC(=O)Nc4cccc(SC)c4)cc3)ccc2[nH]1.Cl` is ____.
*A* 0

*Q* Name the reported %Inh value associated with the molecule `COC(=O)Nc1nc2ccc(Oc3ccc(NC(=O)Nc4cc(C(F)(F)F)ccc4F)cc3)cc2[nH]1.Cl`
*A* 0

*Q* Which %Inh value belongs to `CC(C)c1nc(-c2cccc(NS(=O)(=O)c3c(F)cccc3F)c2)c(-c2ccnc(Nc3ccc(N4CCOCC4)nc3)n2)s1.Cl` ?
*A* 0

*Q* Which measured %Inh value corresponds to `CN(C)CCNS(=O)(=O)c1ccc(-c2ccnc3[nH]ccc23)cc1` ?
*A* 0

*Q* Any idea what its %Inh is? The molecule is `CN(c1ccc(NC(=O)N2CCN(CCCN3CCOCC3)CC2)cc1)c1ccnc(Nc2ccc(CS(C)(=O)=O)cc2)n1.Cl`
*A* 0

*Q* Query: %Inh; subject: NCCC(NC(=O)c1cc(Br)c(-c2ccnc3[nH]ccc23)s1)c1ccccc1.O=C(O)C(F)(F)F.O=C(O)C(F)(F)F (centres unmarked)
*A* 28
